- Tested on: NCI-H226 lung
- Measurement protocol: NCI tumour cell line growth inhibition, 48 h
Recorded endpoint: TGI

>>> result("O=C1c2ccccc2C(=O)c2c(NCC(O)CO)ccc(NCC(O)CO)c21 (stereo not drawn)")
"> 100 µM"
>>> result("COc1cc(OC)cc(Oc2nc3ccccc3nc2C(F)(F)F)c1")
"> 100 µM"
>>> result("CN(C)c1ccc(/C=c2/c3ccccc3n3c2c2c([n+]3C)CCCC2)cc1")
"2.43 µM"

[ask] Could you share which TGI value was measured for Cn1c(I)c(C#CCO[Si](C)(C)C(C)(C)C)c(=O)[nH]c1=O ?
[reply] 32.7 µM

[ask] Could you share which TGI value was measured for Cc1cc(Cl)cc(OCCn2cc(F)cn2)c1-c1nc(N)nc2c1CN(C(=O)NCC(C)(F)F)C2 ?
[reply] > 100 µM

[ask] Could you share which TGI value was measured for COc1cccc(F)c1C(=O)c1cnc(NC2CCN(S(C)(=O)=O)CC2)nc1N ?
[reply] > 18.9 µM

---

- System: OVCAR-4 ovarian
- Measurement protocol: NCI tumour cell line growth inhibition, 48 h
Recorded endpoint: TGI

Worked cases, TGI given:
>>> result("S=C(Nc1ccc(Cl)cc1)Nc1ccc(-c2nc3ccccc3s2)cc1")
"69.4 µM"
>>> result("O=C1c2ccccc2C(=O)c2c(NCC(O)CO)ccc(NCC(O)CO)c21 (stereo not drawn)")
"> 100 µM"
>>> result("CCCC(=O)OCC1OC(n2ccc(N)nc2=O)C(OC(=O)CCC)C1OC(=O)CCC (stereo not drawn)")
"> 100 µM"

[ask] Could you share which TGI value was measured for CCOc1ncn(-c2ccc(NC(=S)Nc3ncccn3)cc2)n1 ?
[reply] > 100 µM

[ask] Could you share which TGI value was measured for COc1cccc(CC(C)=C(c2ccc(OCCN(C)C)cc2)c2ccc(OCCN(C)C)cc2)c1 ?
[reply] 8.16 µM

[ask] Could you share which TGI value was measured for NC(=S)N/N=C/C(=O)O ?
[reply] > 100 µM

[ask] Could you share which TGI value was measured for COc1cccc(CCNC(=O)Cc2ccccc2CCO)c1 ?
[reply] > 100 µM

[ask] Could you share which TGI value was measured for O=[N+]([O-])c1cccc(C2=NN(c3ccccc3)C[N+](c3ccc(Br)cc3)=N2)c1 ?
[reply] > 100 µM

---

- System: HCT-15 colon
- Measurement protocol: NCI tumour cell line growth inhibition, 48 h
Recorded endpoint: TGI

Worked cases, TGI given:
>>> result("CSC1=Nc2c(c(C)c(C)n2COC(CO)CO)C2=NC(=O)C(C)N12 (stereo not drawn)")
"> 100 µM"
>>> result("O=C1C2SC34c5c2c2ccccc2n5CCC3CCCN14 (stereo not drawn)")
"> 100 µM"

Then this compound:
[ask] Could you share which TGI value was measured for O=c1/c(=C/c2ccccc2[N+](=O)[O-])sc2nnc(-c3ccco3)n12 ?
[reply] 75.8 µM

---

- Tested on: CAKI-1 renal
- Measurement protocol: NCI tumour cell line growth inhibition, 48 h
Recorded endpoint: TGI (µM)
API: value field is a number in µM; no unit string.

>>> number("COc1cc(C(=O)N2CCN(C=O)C2=S)cc(OC)c1OC")
26.7

Then this compound:
[ask] Could you share which TGI value was measured for O=C(Nc1ccc(Nc2ccncc2)cc1)c1ccc([N+](=O)[O-])cc1 ?
[reply] 19.3

These data points were gathered from PubChem BioAssay (NCI).
